tested_on: mature human TGF-beta 1 (human, UniProt P01137 279-390)
Sequence (P01137 279-390 limits assumed): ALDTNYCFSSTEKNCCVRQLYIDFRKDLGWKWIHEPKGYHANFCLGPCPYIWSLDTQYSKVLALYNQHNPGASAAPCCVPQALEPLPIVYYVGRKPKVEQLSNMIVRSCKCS
protocol_details: cell-based or functional assay
Measured Geometric mean IC50, HEK-Blue TGF-beta reporter gene assay accompanies every entry in the list below.
Dear colleague, please return just the value in nM, with no unit written.

INSERT INTO assay_data (binder, units_symbol, test_result) VALUES
  ('humanised antibody 4856 Fab graft gL3gH29 (Fab, V domains shown) VH: EVQLVESGGGLVKPGGSLRLSCAASGFSLSSYDMSWVRQAPGKGLEWIGIIYGGSGSTWYASWAKGRFTISRDSAKNSVYLQMNSLRAEDTAVYYCARGRDAGAGGSRDGYSLWGQGTLVTVSS VL: AYDMTQSPSTLSASVGDRVTITCQASESIYSGLAWYQQKPGKAPKLLIYAASDLASGVPSRFSGSGSGTEYTLTISSLQPDDFATYYCQQTWTDGGIDNPFGGGTKVEIKR', 'nM', 0.255),
  ('humanised antibody 4856 Fab graft gL3gH23 (Fab, V domains shown) VH: EVQLVESGGGLVKPGGSLRLSCAASGFSLSSYDMSWVRQAPGKGLEWIGIIYGGSGSTWYASWAKGRFTISRDSAKNSVYLQMNSLRAEDTAVYYCARGRDAGAGGSRNAYSLWGQGTLVTVSS VL: AYDMTQSPSTLSASVGDRVTITCQASESIYSGLAWYQQKPGKAPKLLIYAASDLASGVPSRFSGSGSGTEYTLTISSLQPDDFATYYCQQTWTDGGIDNPFGGGTKVEIKR', 'nM', 0.41),
  ('humanised antibody 4856 Fab graft gL3gH20 (Fab, V domains shown) VH: EVQLVESGGGLVKPGGSLRLSCAASGFSLSSYDMSWVRQAPGKGLEWISIIYGGSGSTWYASWAKGRFTMSKDSAKNSVYLQMNSLRAEDTAVYYCARGRDAGAGGSRNGYSLWGQGTLVTVSS VL: AYDMTQSPSTLSASVGDRVTITCQASESIYSGLAWYQQKPGKAPKLLIYAASDLASGVPSRFSGSGSGTEYTLTISSLQPDDFATYYCQQTWTDGGIDNPFGGGTKVEIKR', 'nM', 0.038);

Could you now consider this next binder?
Query string: Find the recorded Geometric mean IC50, HEK-Blue TGF-beta reporter gene assay belonging to humanised antibody 4856 Fab graft gL3gH13 (Fab, V domains shown, Human gamma-1 CH1 (G1m17) and human C-kappa (K1m3); also called 4856gL3gH13) VH: EVQLVESGGGLVKPGGSLRLSCAASGFSLSSYDMSWVRQAPGKGLEWIGIIYGGSGSTWYASWAKGRFTISRDSAKNSVYLQMNSLRAEDTAVYYCARGRDAGAGGSRNGYSLWGQGTLVTVSS VL: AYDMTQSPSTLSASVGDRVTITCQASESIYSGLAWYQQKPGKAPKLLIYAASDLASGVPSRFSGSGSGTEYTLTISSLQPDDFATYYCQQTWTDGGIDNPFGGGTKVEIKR and report it.
Result string: 0.074
